normalised percent inhibition overview
# Test system: NanoLuc luciferase (NLuc)
# PROTOCOL NOTES: normalised percent inhibition of luminescence (vs positive and negative controls); higher = stronger inhibition
# MEASUREMENT PARAMETERS: metal salt concentration 0.2 mM; screening conditions buffer

{"MOLECULE": "O=[N+]([O-])[O-].O=[N+]([O-])[O-].[Cd+2] [cadmium nitrate]", "normalised percent inhibition, %": 20.6}
{"MOLECULE": "O=[N+]([O-])[O-].O=[N+]([O-])[O-].O=[N+]([O-])[O-].[Ga+3] [gallium(III) nitrate]", "normalised percent inhibition, %": 8.25}
{"MOLECULE": "O=[N+]([O-])[O-].O=[N+]([O-])[O-].[Cu+2] [copper(II) nitrate]", "normalised percent inhibition, %": 137}
{"MOLECULE": "O=[N+]([O-])[O-].[Ag+] [silver nitrate]", "normalised percent inhibition, %": 134}
{"MOLECULE": "[Cl][Fe][Cl] [iron(II) chloride]", "normalised percent inhibition, %": 40.4}
